- Tested on: primary human airway basal cells (HBEC, luciferase-transduced)
- MEASUREMENT_DESCRIPTION: proliferation (luciferase bioluminescence) Z score relative to plate mean; higher = more proliferation / more cells, active = 1.96 or more
- CONDITION_DETAILS: donor: 1; 0.5 µM; library: ENZO Libraries; 4 days
Measured proliferation of individual entries

Past entries and their recorded results:
{"columns": ["COMPOUND", "proliferation"],
 "data": [
  ["CC(NC(=O)c1ccccc1/N=C/c1c(O)ccc2ccccc12)c1ccccc1 (stereo not given)", "-0.129 (inactive)"],
  ["CCCC[C@@H](C=O)NC(=O)OC(C)(C)C", "0.474 (inactive)"],
  ["O=C1Nc2ccc(I)cc2/C1=C/c1cc(Br)c(O)c(Br)c1", "-0.115 (inactive)"],
  ["O=C[C@@H]1CCCN1C(=O)[C@@H]1CCCN1C(=O)OCc1ccccc1", "-0.531 (inactive)"]
]}

Attention now shifts to the item below.
Name the recorded proliferation for CCCCCCCCCC(=O)N[C@@H](CCCN=C(N)N)C(=O)N[C@H](C(=O)N[C@@H](CCCCN)C(=O)N[C@@H](CCCN=C(N)N)C(=O)CCl)C(C)C .
0.21 (inactive)
